Tested on: Fer (mouse)
Assay: phosphorylation enrichment, bacterial display (enrichment ratio); higher = better substrate or ligand; peptides without Tyr show the background;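 further: 11-residue human phosphosite peptides and single-mutation variants displayed on the E. coli surface, counted by deep sequencing, each peptide's frequency after selection divided by its frequency in the unselected input library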;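 further: frequency after pTyr selection over input frequency; kinase dosed for 20-30% of maximal phosphorylation in three min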
readout-kind: phosphorylation enrichment

[[record]]
biosequence = "DTNIAYWLHPR [POMT1_Y581]"
target_desc = "Fer (mouse)"
readout_kind = "phosphorylation enrichment"
val = 0.373

[[record]]
biosequence = "THEVRYVSAGQ [SLCO4A1_Y77]"
target_desc = "Fer (mouse)"
readout_kind = "phosphorylation enrichment"
val = 0.47

[[record]]
biosequence = "VFFGSYSRPFG [NKAP_Y104_YF]"
target_desc = "Fer (mouse)"
readout_kind = "phosphorylation enrichment"
val = 0.419

[[record]]
biosequence = "FEKNVYVDKNL [PTCHD3_Y688]"
target_desc = "Fer (mouse)"
readout_kind = "phosphorylation enrichment"
val = 0.437

[[record]]
biosequence = "DAVAVYHGKIS [SH2D1A_Y7]"
target_desc = "Fer (mouse)"
readout_kind = "phosphorylation enrichment"
val = 0.379

[[record]]
biosequence = "YKTPIYPYLLP [PLD2_Y578_T577I]"
target_desc = "Fer (mouse)"
readout_kind = "phosphorylation enrichment"
val = 0.695

[[record]]
biosequence = "CTTIHSNYMCN [TP53_Y234_Y234S]"
target_desc = "Fer (mouse)"
readout_kind = "phosphorylation enrichment"
val = 0.44

[[record]]
biosequence = "TSSGGYRRTPS [ABI1_Y333]"
target_desc = "Fer (mouse)"
readout_kind = "phosphorylation enrichment"
val = 0.473

[[record]]
biosequence = "ADTETYLLEKS [MYH7_Y266_I263T]"
target_desc = "Fer (mouse)"
readout_kind = "phosphorylation enrichment"
val = 0.607

[[record]]
biosequence = "CNPLRYPTIMI [OR6K6_Y160]"
target_desc = "Fer (mouse)"
readout_kind = "phosphorylation enrichment"
val = 0.419

[[record]]
biosequence = "ISISPYPAILH [IFT80_Y588_T586S]"
target_desc = "Fer (mouse)"
readout_kind = "phosphorylation enrichment"
val = 0.418

[[record]]
biosequence = "QLHRKYCLSPR [HJURP_Y445_E444K]"
target_desc = "Fer (mouse)"
readout_kind = "phosphorylation enrichment"
val = 0.603

[[record]]
biosequence = "HYPDVYAREQL [ALX3_Y181]"
target_desc = "Fer (mouse)"
readout_kind = "phosphorylation enrichment"
val = 0.36

[[record]]
biosequence = "HNELFYEEAEH [VANGL1_Y345_YF]"
target_desc = "Fer (mouse)"
readout_kind = "phosphorylation enrichment"
val = 4.23

[[record]]
biosequence = "RLLVVYHWTQR [HBD_Y36_P37H]"
target_desc = "Fer (mouse)"
readout_kind = "phosphorylation enrichment"
val = 0.659

[[record]]
biosequence = "QDEHGYIFRCF [HSPB1_Y133_S135F]"
target_desc = "Fer (mouse)"
readout_kind = "phosphorylation enrichment"
val = 0.793

[[record]]
biosequence = "NVADHYGVYKP [ATP6V0D2_Y271]"
target_desc = "Fer (mouse)"
readout_kind = "phosphorylation enrichment"
val = 0.424

[[record]]
biosequence = "VAVVQYSGTGQ [COL6A1_Y878]"
target_desc = "Fer (mouse)"
readout_kind = "phosphorylation enrichment"
val = 0.387

[[record]]
biosequence = "IPGMEYLVSII [TNC_Y1775_V1773M]"
target_desc = "Fer (mouse)"
readout_kind = "phosphorylation enrichment"
val = 0.722

[[record]]
biosequence = "DGYTDYAEFAK [MCFD2_Y138_I136T]"
target_desc = "Fer (mouse)"
readout_kind = "phosphorylation enrichment"
val = 0.4

[[record]]
biosequence = "LAEMNYVHQDL [EPHB1_Y740_R743Q]"
target_desc = "Fer (mouse)"
readout_kind = "phosphorylation enrichment"
val = 0.716

[[record]]
biosequence = "QKKPRYEIRWK [PDGFRB_Y562]"
target_desc = "Fer (mouse)"
readout_kind = "phosphorylation enrichment"
val = 1.02

[[record]]
biosequence = "ASLEAYCKHKF [RXRA_Y403_YF]"
target_desc = "Fer (mouse)"
readout_kind = "phosphorylation enrichment"
val = 0.585

[[record]]
biosequence = "KRLAVYQAGAR [APOE_Y180]"
target_desc = "Fer (mouse)"
readout_kind = "phosphorylation enrichment"
val = 0.333

[[record]]
biosequence = "TTKAKYKTPIY [PLD2_Y573_T577I]"
target_desc = "Fer (mouse)"
readout_kind = "phosphorylation enrichment"
val = 0.459

[[record]]
biosequence = "VERRVYAEDPF [PCCA_Y401_C398R_YF]"
target_desc = "Fer (mouse)"
readout_kind = "phosphorylation enrichment"
val = 0.39

[[record]]
biosequence = "TSSAIYMNLAS [GATAD2B_Y317]"
target_desc = "Fer (mouse)"
readout_kind = "phosphorylation enrichment"
val = 3.71

[[record]]
biosequence = "SVVVPHEPPEV [TP53_Y220_Y220H]"
target_desc = "Fer (mouse)"
readout_kind = "phosphorylation enrichment"
val = 0.538

[[record]]
biosequence = "QGCGIYKDYYR [PLA2G2D_Y82_S80G]"
target_desc = "Fer (mouse)"
readout_kind = "phosphorylation enrichment"
val = 0.67

[[record]]
biosequence = "LLKAKYELLNA [POLR3A_Y714]"
target_desc = "Fer (mouse)"
readout_kind = "phosphorylation enrichment"
val = 0.423

[[record]]
biosequence = "WPQKLYNNFVN [MYO5C_Y526_L522P]"
target_desc = "Fer (mouse)"
readout_kind = "phosphorylation enrichment"
val = 0.377

[[record]]
biosequence = "TSSSSYFDEPV [ARFGAP3_Y356]"
target_desc = "Fer (mouse)"
readout_kind = "phosphorylation enrichment"
val = 0.506

[[record]]
biosequence = "FSCLPYRRLAY [SLC52A2_Y305_G306R]"
target_desc = "Fer (mouse)"
readout_kind = "phosphorylation enrichment"
val = 0.5

[[record]]
biosequence = "DASENYFVMDS [TMEM240_Y77_T80M]"
target_desc = "Fer (mouse)"
readout_kind = "phosphorylation enrichment"
val = 0.732

[[record]]
biosequence = "FLAVGYHKPFI [IDS_Y225_H229Y_YF]"
target_desc = "Fer (mouse)"
readout_kind = "phosphorylation enrichment"
val = 0.435

[[record]]
biosequence = "GKMSQYLESMQ [CYB5R3_Y130]"
target_desc = "Fer (mouse)"
readout_kind = "phosphorylation enrichment"
val = 0.373

[[record]]
biosequence = "LHRHAYPEQRQ [DPPA2_Y127]"
target_desc = "Fer (mouse)"
readout_kind = "phosphorylation enrichment"
val = 0.532

[[record]]
biosequence = "EEKKKYFDAKI [CASP5_Y103_T106A_YF]"
target_desc = "Fer (mouse)"
readout_kind = "phosphorylation enrichment"
val = 0.401

[[record]]
biosequence = "QPGDICHQTWA [GBA_Y244_Y244C]"
target_desc = "Fer (mouse)"
readout_kind = "phosphorylation enrichment"
val = 0.462

[[record]]
biosequence = "ARMTNCGLPRF [TSPAN12_Y138_Y138C_YF]"
target_desc = "Fer (mouse)"
readout_kind = "phosphorylation enrichment"
val = 0.352

[[record]]
biosequence = "PMQLPHDSTWE [PDGFRB_Y589_Y589H]"
target_desc = "Fer (mouse)"
readout_kind = "phosphorylation enrichment"
val = 0.737

[[record]]
biosequence = "LEHCQYVTEKV [ALDOB_Y204]"
target_desc = "Fer (mouse)"
readout_kind = "phosphorylation enrichment"
val = 1.91

[[record]]
biosequence = "DDLTDYLMKIL [ACTA1_Y190_R185D]"
target_desc = "Fer (mouse)"
readout_kind = "phosphorylation enrichment"
val = 0.457

[[record]]
biosequence = "VDEERYDIEAK [TNNI3_Y112]"
target_desc = "Fer (mouse)"
readout_kind = "phosphorylation enrichment"
val = 0.519

[[record]]
biosequence = "GEKKAYVRLAP [RPL23A_Y137]"
target_desc = "Fer (mouse)"
readout_kind = "phosphorylation enrichment"
val = 0.398


###

Target: EPHB2 (UniProt P29323)
Sequence (P29323 whole entry, looked up): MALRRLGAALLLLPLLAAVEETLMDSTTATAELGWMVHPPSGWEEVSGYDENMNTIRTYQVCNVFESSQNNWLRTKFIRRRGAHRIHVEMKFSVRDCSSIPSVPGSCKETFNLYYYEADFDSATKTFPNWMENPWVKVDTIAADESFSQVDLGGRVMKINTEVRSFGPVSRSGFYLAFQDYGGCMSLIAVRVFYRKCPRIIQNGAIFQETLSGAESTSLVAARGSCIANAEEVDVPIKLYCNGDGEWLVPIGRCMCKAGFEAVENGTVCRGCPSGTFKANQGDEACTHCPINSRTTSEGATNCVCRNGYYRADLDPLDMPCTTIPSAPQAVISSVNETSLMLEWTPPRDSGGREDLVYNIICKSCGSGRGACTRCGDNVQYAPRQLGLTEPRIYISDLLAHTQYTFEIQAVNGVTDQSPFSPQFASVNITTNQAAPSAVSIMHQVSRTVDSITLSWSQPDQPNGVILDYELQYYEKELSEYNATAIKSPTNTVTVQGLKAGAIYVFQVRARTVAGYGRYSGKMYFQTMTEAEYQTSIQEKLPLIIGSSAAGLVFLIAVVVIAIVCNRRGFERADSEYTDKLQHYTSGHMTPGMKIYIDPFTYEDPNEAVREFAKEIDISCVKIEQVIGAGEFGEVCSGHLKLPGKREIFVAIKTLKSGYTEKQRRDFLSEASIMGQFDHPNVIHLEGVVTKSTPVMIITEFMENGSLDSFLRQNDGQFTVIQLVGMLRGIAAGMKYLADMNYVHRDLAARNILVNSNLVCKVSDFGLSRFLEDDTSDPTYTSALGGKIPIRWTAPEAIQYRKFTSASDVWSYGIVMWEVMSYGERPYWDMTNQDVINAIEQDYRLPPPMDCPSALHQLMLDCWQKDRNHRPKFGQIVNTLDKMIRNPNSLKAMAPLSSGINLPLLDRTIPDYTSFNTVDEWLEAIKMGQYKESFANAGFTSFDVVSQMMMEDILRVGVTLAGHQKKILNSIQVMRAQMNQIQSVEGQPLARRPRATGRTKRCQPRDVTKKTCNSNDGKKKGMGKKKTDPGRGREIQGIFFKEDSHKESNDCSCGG
Test: phosphorylation enrichment, bacterial display (enrichment ratio); higher = better substrate or ligand; peptides without Tyr show the background
// phosphorylation enrichment lookup, one value per entry
readout-kind: phosphorylation enrichment

[[record]]
biosequence = "LAEMNYVHQDL [EPHB1_Y740_R743Q]"
val = 0.72

[[record]]
biosequence = "DGTIVCTGLET [USH2A_Y4487_Y4487C]"
val = 0.558

[[record]]
biosequence = "GGSTFYIDTNA [ACTL6A_Y69_P66S_YF]"
val = 0.48

[[record]]
biosequence = "TSESSYYKSLN [NGEF_Y288_A286S]"
val = 0.668

[[record]]
biosequence = "CTHDLYMFMRE [FGFR3_Y724_I726F]"
val = 1.04

[[record]]
biosequence = "DLFRLYICVKE [ARID1B_Y1091_V1092I]"
val = 0.715

[[record]]
biosequence = "VIERSYTSADG [DHCR7_Y382_C380R]"
val = 0.478

[[record]]
biosequence = "QRALLYEDALF [UNC13D_Y56_YF]"
val = 8.85

[[record]]
biosequence = "NLNGKYFKPRA [ANGPTL3_Y417_N418Y_YF]"
val = 0.365

[[record]]
biosequence = "PEACDYGLGGG [GSTO1_Y239]"
val = 0.887

[[record]]
biosequence = "KIEGVYARDET [RPL35A_Y34]"
val = 0.612

[[record]]
biosequence = "KHMADYPDYKY [SOX11_Y113]"
val = 0.471

[[record]]
biosequence = "NFRTTYVNANE [KCNH2_Y475]"
val = 0.464

[[record]]
biosequence = "ALHHPYGCDVE [ABL2_Y80_R78H]"
val = 0.621

[[record]]
biosequence = "NNHGNYIVRLG [ETFDH_Y172]"
val = 0.563

[[record]]
biosequence = "FAFQLYDLDPD [CHP2_Y123_R127P_YF]"
val = 0.698

[[record]]
biosequence = "HYGNNYTDVLQ [MACC1_Y803_R804T]"
val = 1.45

[[record]]
biosequence = "VDEERYDIEAK [TNNI3_Y112]"
val = 0.708

[[record]]
biosequence = "QDDFSYPSRQM [LDLR_Y847_G844D_YF]"
val = 0.575

[[record]]
biosequence = "QWRTKYEMDAI [MYH7_Y1375_T1377M]"
val = 0.4

[[record]]
biosequence = "IFRASYVPFAA [RBM47_Y541_G538R_YF]"
val = 0.548

[[record]]
biosequence = "SFLFRYADDSF [RAB3C_Y50]"
val = 0.515

[[record]]
biosequence = "TGDRPYVCPFD [YY1_Y383]"
val = 0.46

[[record]]
biosequence = "KLGDVYVNVAF [PGK1_Y161_D164V]"
val = 0.632

[[record]]
biosequence = "NKEPRYQEDPP [TJP2_Y479]"
val = 0.607

[[record]]
biosequence = "VFGVSYDEYRY [CFTR_Y512_I507V]"
val = 0.465

[[record]]
biosequence = "LEDDVYRKTCT [XPA_Y257_M256V]"
val = 0.724

[[record]]
biosequence = "TRFDEYLEVTK [MAP1A_Y2217_H2214Y_YF]"
val = 0.723

[[record]]
biosequence = "AAVDTYCRHNF [HLA-DRB1_Y107_YF]"
val = 0.516

[[record]]
biosequence = "CTTIHYNYMCD [TP53_Y234_N239D]"
val = 0.515

[[record]]
biosequence = "VCHELYNAIRD [PBRM1_Y54_T56A]"
val = 0.574

[[record]]
biosequence = "ENFDDYMKEVG [FABP4_Y20]"
val = 0.623

[[record]]
biosequence = "VERRVYAEDPF [PCCA_Y401_C398R_YF]"
val = 0.499

[[record]]
biosequence = "HFGCVYFGTLL [MET_Y1093_H1094Y_YF]"
val = 0.699

[[record]]
biosequence = "PFIDSYEKDVA [PGM1_Y521_L516P_YF]"
val = 0.708

[[record]]
biosequence = "ETKKQYNSFTF [TMED3_Y85_D86N_YF]"
val = 0.475

[[record]]
biosequence = "LEHCQYVTEKV [ALDOB_Y204]"
val = 1.55

[[record]]
biosequence = "ARSMEYLAEQK [MST1R_Y1198]"
val = 0.493

[[record]]
biosequence = "PTQLPYDHKWK [KIT_Y578_E583K]"
val = 0.299

[[record]]
biosequence = "DCLASYLDKVR [KRT10_Y160_R156C]"
val = 0.659

[[record]]
biosequence = "VPLATYMRIFK [RPL21_Y30_YF]"
val = 0.425

[[record]]
biosequence = "LQEKSYIKGTS [LCTL_Y331]"
val = 1.02

[[record]]
biosequence = "GIVKAYYVHAR [AIPL1_Y267_R270H]"
val = 0.51

[[record]]
biosequence = "LNYNEYFRDLN [HPRT1_Y198_D194N]"
val = 1.12

[[record]]
biosequence = "KPVEEYANCHL [TF_Y593]"
val = 0.549

[[record]]
biosequence = "LSSISYVGCSL [ADGRD1_Y571]"
val = 1.11

[[record]]
biosequence = "GFQPDYGQPAG [SYP_Y278_YF]"
val = 0.431

[[record]]
biosequence = "VKFLGYPPPEI [KDR_Y357_A352V_YF]"
val = 0.618

[[record]]
biosequence = "CTTIHYNYMYN [TP53_Y234_C238Y]"
val = 0.69

[[record]]
biosequence = "TRTEAYAVSSF"
val = 0.378

[[record]]
biosequence = "ALTDNYMFVVI [HAGH_Y61_L64V_YF]"
val = 8.6

[[record]]
biosequence = "ELTSKYRGGGG [HBA1_Y141_V136E]"
val = 0.385

